test system: P388; test: Compound was tested for the antitumor activity against P388 lymphocytic leukemia at dose level of 120 mg/kg; format: functional, Mus musculus
ENDPOINT_LABEL: Weight difference
# output: numeric value plus its unit

Consider the worked cases shown below.
1. CC(C)NC(=O)OCc1c(-c2ccccc2)c(COC(=O)NC(C)C)n(C)c1-c1ccccc1: -4.5 g
2. CC(C)NC(=O)OCc1c(-c2ccccc2)c(-c2ccccc2)n(C)c1COC(=O)NC(C)C: 1.5 g
3. CC(C)NC(=O)OCc1c(-c2ccccc2)c(-c2ccccc2)c(COC(=O)NC(C)C)n1C: -0.2 g

Moving on to the next compound.
[ask] Can you look up the measured Weight difference of "CC(C)NC(=O)OCc1c(COC(=O)NC(C)C)c(-c2ccccc2)n(C)c1-c1ccccc1" for me?
[reply] -4.4 g

====

So I've got a bunch of compounds here, and I need their K' values.
assay: Pseudo-first order rate constant for the reaction with 4-(p-Nitrobenzyl)pyridine
Answers are plain numbers, in abs/time.

Consider the worked cases shown below.
1) CC(C)NC(=O)OCc1c(-c2ccccc2)c(COC(=O)NC(C)C)n(C)c1-c1ccccc1: 0.00112
2) CC(C)NC(=O)OCc1c(-c2ccccc2)c(-c2ccccc2)n(C)c1COC(=O)NC(C)C: 0.00321

Here are 2 compounds. What values of K' were reported for them?
1. CC(C)NC(=O)OCc1c(-c2ccccc2)c(-c2ccccc2)c(COC(=O)NC(C)C)n1C
2. CC(C)NC(=O)OCc1c(COC(=O)NC(C)C)c(-c2ccccc2)n(C)c1-c1ccccc1

[reply]
1: 0.00669; 2: 0.00498

src = ChEMBL document CHEMBL1123467
